Assignment: determine reported z-score for the given compounds.
Assay: mitochondrial membrane potential change in A549 cells, profiling panel, cell-based, JC-1 fluorescence, basal, 24 h, 100 nL (AID 1138);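 also: A549 lung adenocarcinoma cells under basal conditions with no added stimulus; test concentration not given here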
Settings: higher = more signal
One number for each entry.

Here's what some known entries look like.
compound | z-score
C[C@H]1COC(=O)[C@@H]2CCCN2C(=O)[C@@H](C)COC(=O)[C@H](Cc2ccccc2)NC1=O | -0.731
O=C1[C@H]2[C@H]3[C@H](O)[C@H](O)CC(=NO[C@@H]4O[C@H](CO)[C@@H](O)[C@H](O)[C@H]4O)[C@H]3CC[C@H]2C(=O)N1c1cccc(Oc2ccccc2)c1 | -0.873
COc1ccc(O[C@H]2C=C[C@@H](c3ccccc3)O[C@@H]2COC(=O)CCC(C)=NOC(C)CN2CCCc3nc(C)c(C)cc32)cc1 (some centres undefined) | 1.89

Problem: Fill in: z-score of CC(CCN1CCCCc2nc(C)c(C)cc21)=NOC[C@@H](O)COCc1ccco1 is ___
Result: 0.143

----------
Assignment: determine reported composite z-score for the given molecules.
Assay: small-molecule microarray binders of probe aLefty2, primary screen, biochemical, biotinylated probe, 635/667 nm fluorescence (AID 1094);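 also: score merges spot fluorescence near 667 nm with spot signal-to-noise ratio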
Conditions: higher = more signal
Numbers only.

# per-item lookup of composite z-score; items listed below
1. C#CCCCON=C1C[C@@H](O)[C@@H](O)[C@@H]2[C@@H]3C(=O)N(c4ccc(F)cc4F)C(=O)[C@@H]3CC[C@@H]12
2. O=C1CCCC=C1C(CCc1ccccc1)OC(=O)c1ccc(Br)cc1 (stereo not drawn)
3. COc1cccc([C@H]2Oc3ccc(OC)cc3C(=NOC(C)CN3CCCCc4nc(C)c(C)cc43)[C@@H]2O)c1 (stereo partly drawn)
4. COc1ccc(O[C@H]2C=C[C@@H](c3ccccc3)O[C@@H]2CON=C(C)CCC(=O)OC[C@H]2O[C@H](c3ccccc3)C=C[C@@H]2Oc2ccc(OC)cc2)cc1

Result:
[-0.124, -0.159, 0.0344, -0.294]

# per-item lookup of composite z-score; items listed below
1. COc1ccc(O[C@@H]2[C@H](O)CO[C@@H]2C=Cc2ccccc2)cc1
2. CC(CCN1CCCCc2nc(C)c(C)cc21)=NOC[C@@H](C)[C@H](OCc1ccccc1)C(C)C
3. Cn1c(=O)n2n(c1=O)[C@H]1[C@H](O)[C@@H]3O[C@@H]3C(=NOCc3ccccc3)[C@H]1CC2
4. CC(C)=CCCC(C)=CCON=C1C[C@@H](O)[C@@H](O)[C@@H]2[C@@H]3C(=O)N(C(C)(C)C)C(=O)[C@@H]3CC[C@@H]12

Result:
[-0.238, -0.467, -0.185, -0.0615]

----------
Biological target: Luciferin 4-monooxygenase (Photinus pyralis) (UniProt P08659)
Sequence (P08659 whole entry, looked up): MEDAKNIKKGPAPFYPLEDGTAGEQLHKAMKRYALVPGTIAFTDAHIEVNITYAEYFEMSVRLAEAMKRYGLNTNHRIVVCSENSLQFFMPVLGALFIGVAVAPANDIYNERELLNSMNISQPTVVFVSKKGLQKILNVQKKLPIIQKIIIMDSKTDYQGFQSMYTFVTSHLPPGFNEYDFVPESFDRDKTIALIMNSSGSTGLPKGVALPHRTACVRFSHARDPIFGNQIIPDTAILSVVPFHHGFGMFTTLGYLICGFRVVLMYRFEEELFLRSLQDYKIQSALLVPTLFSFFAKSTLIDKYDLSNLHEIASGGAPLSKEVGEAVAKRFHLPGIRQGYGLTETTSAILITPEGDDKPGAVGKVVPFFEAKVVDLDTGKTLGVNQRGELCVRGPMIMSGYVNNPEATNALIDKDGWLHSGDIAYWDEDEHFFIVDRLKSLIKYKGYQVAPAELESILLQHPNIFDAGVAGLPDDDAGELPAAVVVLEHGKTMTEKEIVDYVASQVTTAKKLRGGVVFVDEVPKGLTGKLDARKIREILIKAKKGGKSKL
Assay: firefly luciferase enzyme inhibitors, primary screen, biochemical, luminescence, purified enzyme, 2006 set (AID 1141);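 also: cell-free assay with purified firefly luciferase at 100 ng per well in PBS; test concentration not given here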
Conditions: SteadyGlo luminescence, 30 min, higher = more signal, called active from +8 up or from −8 down
Calls of active or inactive are those of the source.
Assignment: determine reported z-score for the given molecules.

molecule | targetOrSystem | z-score
CCOC(=O)[C@H](Cc1ccccc1)NC(=O)CCC1CC(OC(=O)NCc2cccc3ccccc23)CC2(CCCC(COC(=O)NCc3cccc(C(F)(F)F)c3)O2)O1 (some centres undefined) | Luciferin 4-monooxygenase (Photinus pyralis) (UniProt P08659) | -0.114 (inactive)
COC(=O)[C@H](C)NC(=O)CCC1CC(OC(=O)NCc2ccc3c(c2)OCO3)CC2(CCCC(COC(=O)NCc3cccc(C(F)(F)F)c3)O2)O1 (some centres undefined) | Luciferin 4-monooxygenase (Photinus pyralis) (UniProt P08659) | 0.969 (inactive)
CC(CCN1CCc2nc(-c3ccccc3)c(-c3ccccc3)cc2C1)=NOC[C@@H](O)COCc1ccco1 | Luciferin 4-monooxygenase (Photinus pyralis) (UniProt P08659) | -1.46 (inactive)
COc1ccc(COC(=O)NN=C2C[C@@H](O)[C@@H](O)[C@@H]3[C@@H]4C(=O)N(c5cccc(Oc6ccccc6)c5)C(=O)[C@@H]4CC[C@@H]23)cc1 | Luciferin 4-monooxygenase (Photinus pyralis) (UniProt P08659) | 0.891 (inactive)
C[C@@H]1NC(=O)[C@@H](C)COC(=O)[C@H](C)NC(=O)[C@@H](C)COC1=O | Luciferin 4-monooxygenase (Photinus pyralis) (UniProt P08659) | 0.254 (inactive)
C#CCCCON=C1C[C@@H](O)[C@@H](O)[C@@H]2[C@@H]3C(=O)N(CC)C(=O)[C@@H]3CC[C@@H]12 | Luciferin 4-monooxygenase (Photinus pyralis) (UniProt P08659) | 0.194 (inactive)
COC(=O)[C@@H]1CC[C@H](C)[C@@H](c2ccc(C)cc2)N1C(=O)c1ccc(C=NO[C@H](C)c2cn([C@H](CO)Cc3ccccc3)nn2)cc1 | Luciferin 4-monooxygenase (Photinus pyralis) (UniProt P08659) | 0.184 (inactive)
Cc1ccc(S(=O)(=O)N[C@@H]2COC(=O)[C@@H](C)COC(=O)CC=C[C@H]2C)cc1 | Luciferin 4-monooxygenase (Photinus pyralis) (UniProt P08659) | -0.836 (inactive)

# per-item lookup of z-score; items listed below
1. COc1ccc(O[C@H]2C=C[C@@H](c3ccccc3)O[C@@H]2COC(=O)CCC(C)=NO[C@@H]2O[C@H](COC(C)=O)[C@@H](OC(C)=O)[C@H](OC(C)=O)[C@H]2OC(C)=O)cc1
2. O=C1[C@H]2[C@H]3[C@H](O)[C@H](O)CC(=NOCc4ccccc4)[C@@H]3CC[C@H]2C(=O)N1Cc1ccc2c(c1)OCO2
3. CC(C)CON=C1C[C@@H](O)[C@@H](O)[C@@H]2[C@@H]3C(=O)N(Cc4ccc5c(c4)OCO5)C(=O)[C@@H]3CC[C@H]12
4. CC(CCN1CCc2nc(-c3ccccc3)c(-c3ccccc3)cc2C1)=NOC[C@@H](O)[C@H]1O[C@@H]2OC(C)(C)O[C@@H]2[C@H]1O
5. COc1ccc(O[C@H]2C=C[C@@H](c3ccccc3)O[C@@H]2CON=C(C)CCN2CCc3nc(-c4ccccc4)c(-c4ccccc4)cc3C2)cc1
6. COc1ccc(COC(=O)NN=C2C[C@@H](O)[C@@H](O)[C@@H]3[C@@H]4C(=O)N(Cc5ccccc5)C(=O)[C@@H]4CC[C@H]23)cc1
7. COC(=O)[C@@H]1CC[C@H](C)[C@@H](c2ccc(C)cc2)N1C(=O)c1ccc(C=NO[C@H](C)c2cn([C@@H]3COC[C@H]3O)nn2)cc1
8. CC(=O)OC[C@H]1O[C@@H](ON=C(C)CCN2CCCc3nc(C)c(C)cc32)[C@H](OC(C)=O)[C@@H](OC(C)=O)[C@@H]1OC(C)=O

Result:
1. 1.16 (inactive)
2. 0.729 (inactive)
3. 1.26 (inactive)
4. -0.116 (inactive)
5. 0.84 (inactive)
6. 0.893 (inactive)
7. 0.411 (inactive)
8. 0.788 (inactive)

# per-item lookup of z-score; items listed below
1. CCCCC#C[C@@H]1C=C[C@H](Oc2ccc(C(=O)OC)cc2)[C@@H](COC(=O)OCC)O1
2. CO[C@H]1COC(=O)CC=C[C@H](C)COC(=O)[C@@H](C)NC(=O)CC=C[C@@H]1C
3. COC(=O)[C@H](C)NC(=O)CCC1CC(OC(=O)NCc2cccc3ccccc23)CC2(CCCC(COC(=O)NCC(c3ccccc3)c3ccccc3)O2)O1 (some centres undefined)
4. Cc1ccc(S(=O)(=O)OC[C@H]2CN3[C@H](c4ccc(Br)cc4)[C@@H](C)CC[C@H]3C(=O)O2)cc1

Result:
1. -3.64 (inactive)
2. 0.917 (inactive)
3. 1.22 (inactive)
4. -0.849 (inactive)

# per-item lookup of z-score; items listed below
1. Cc1ccc(S(=O)(=O)N[C@H]2COC(=O)CC=C[C@H](C)[C@@H](NS(=O)(=O)c3ccc(C)cc3)COC(=O)CC=C[C@@H]2C)cc1
2. C[C@@H](c1ccccc1)N1C(=O)[C@H]2[C@H]3[C@H](O)[C@H](O)CC(=NOCc4ccccc4)[C@H]3CC[C@H]2C1=O
3. C[n+]1ccc(-c2ccc(CO)cc2)cc1
4. COc1ccc(C#C[C@@H]2C=C[C@H](OC(C)=O)[C@@H](COC(C)=O)O2)cc1

Result:
0.846 (inactive)
0.0057 (inactive)
-0.288 (inactive)
-1.06 (inactive)

# per-item lookup of z-score; items listed below
1. CC(CCN1CCCCc2nc(C)c(C)cc21)=NOC[C@@H](O)COCc1ccco1
2. CCCNC(=O)OC[C@H]1O[C@H](c2ccccc2)C=C[C@@H]1Oc1ccc(OC)cc1
3. CC(C)=CCCC(C)=CCON=C1C[C@@H](O)[C@@H](O)[C@@H]2[C@@H]3C(=O)N(c4ccc(F)cc4F)C(=O)[C@@H]3CC[C@H]12
4. COC(=O)[C@@H]1CC[C@H](C)[C@@H](c2ccc(C)cc2)N1C(=O)c1ccc(C=NOCC[C@@H]2C=C[C@H](OC(C)=O)[C@@H](COC(C)=O)O2)cc1

Result:
0.357 (inactive)
-0.533 (inactive)
0.443 (inactive)
0.963 (inactive)

Problem: API: value(readout=z-score, system=Luciferin 4-monooxygenase (Photinus pyralis) (UniProt P08659)) for record C[C@H]1Cc2c(COc3ccccc3)nc3c(c2CO1)CN(CCOc1ccccc1)CC3
Result: -1.19 (inactive)
